All values here come from patent US20220030868A1.

Listing of entries alongside the reported Test A rating (disease control).
Tested on: Phakopsora pachyrhizi
assay_name: Test A: test suspension sprayed on soybean seedlings one day before inoculation with Phakopsora pachyrhizi spores (Asian soybean rust), visual disease rating
Assay type: in vivo
conditions: 10 ppm test suspension, 100 = 100% disease control, 0 = no control
Excerpt: General protocol for preparing test suspensions for Tests A-C: the test compounds were first dissolved in acetone in an amount equal to 3% of the final volume and then suspended at the desired concentration (in ppm) in acetone and purified water (50/50 mix by volume) containing 250 ppm of the surfactant PEG400 (polyhydric alcohol esters). The resulting test suspensions were then used in Tests A-C. The test solution was sprayed to the point of run-off on soybean seedlings. […]
Response body: numeric value in %, unit text excluded.

Check out these entries, answers already filled in.
[[record]]
smiles_structure = "CCO/C(=C\\Oc1ccc(Cn2nc(C)cc2C)cc1)C(F)(F)F"
target_entity = "Phakopsora pachyrhizi"
endpoint_unit = "%"
measurement = 0

[[record]]
smiles_structure = "O=C(OCC(=O)C1CCCCC1)c1cnn(Cc2ccc(OCC3(C(F)(F)F)OCCO3)cc2)c1"
target_entity = "Phakopsora pachyrhizi"
endpoint_unit = "%"
measurement = 100

[[record]]
smiles_structure = "CCO/C(=C\\Oc1ccc(Cn2cc(C(=O)OC(C)(C)C)cn2)cc1)C(F)(F)F"
target_entity = "Phakopsora pachyrhizi"
endpoint_unit = "%"
measurement = 0

[[record]]
smiles_structure = "CCO/C(=C\\Oc1ccc(Cn2cc(C(=O)OCCOC)cn2)cc1)C(F)(F)F"
target_entity = "Phakopsora pachyrhizi"
endpoint_unit = "%"
measurement = 100

[[record]]
smiles_structure = "CCCOC(=O)c1cnn(Cc2ccc(O/C=C(\\OCC)C(F)(F)F)cc2)c1"
target_entity = "Phakopsora pachyrhizi"
endpoint_unit = "%"
measurement = 100

[[record]]
smiles_structure = "O=C(OC1CCC1)c1cnn(Cc2ccc(OCC3(C(F)(F)F)OCCO3)cc2)c1"
target_entity = "Phakopsora pachyrhizi"
endpoint_unit = "%"
measurement = 100

[[record]]
smiles_structure = "CCOC(=O)c1cnn(Cc2ccc(CO/C=C(\\OCC)C(F)(F)F)cc2)c1"
target_entity = "Phakopsora pachyrhizi"
endpoint_unit = "%"
measurement = 38


Next compound, Test A rating (disease control) to be filled in.
Input: I would be grateful if you could share the reported Test A rating (disease control) for CC(=O)COC(=O)c1cnn(Cc2ccc(OCC3(C(F)(F)F)OCCO3)cc2)c1 .
Output: 100

====

Tested on: Phakopsora pachyrhizi
assay_name: Test A: test suspension sprayed on soybean seedlings one day before inoculation with Phakopsora pachyrhizi spores (Asian soybean rust), visual disease rating
Type: in vivo
conditions: 10 ppm test suspension, 100 = 100% disease control, 0 = no control
Source text: General protocol for preparing test suspensions for Tests A-C: the test compounds were first dissolved in acetone in an amount equal to 3% of the final volume and then suspended at the desired concentration (in ppm) in acetone and purified water (50/50 mix by volume) containing 250 ppm of the surfactant PEG400 (polyhydric alcohol esters). The resulting test suspensions were then used in Tests A-C. The test solution was sprayed to the point of run-off on soybean seedlings. […]
readout_kind: Test A rating (disease control) (%)
Response body: numeric value in %, unit text excluded.

Check out these entries, answers already filled in.
[[record]]
compound = "O=C(COC(=O)c1cnn(Cc2ccc(OCC3(C(F)(F)F)OCCO3)cc2)c1)c1ccccc1 [compound 170]"
readout_kind = "Test A rating (disease control)"
endpoint_unit = "%"
measurement = 100

[[record]]
compound = "O=C(OCc1ccccn1)c1cnn(Cc2ccc(OCC3(C(F)(F)F)OCCO3)cc2)c1 [compound 199]"
readout_kind = "Test A rating (disease control)"
endpoint_unit = "%"
measurement = 100

[[record]]
compound = "COC(=O)NN=Cc1ccc(OCC2(C(F)(F)F)OCCO2)cc1 [compound 27]"
readout_kind = "Test A rating (disease control)"
endpoint_unit = "%"
measurement = 0


Input: I would be grateful if you could share the reported Test A rating (disease control) for CCCCOC(=O)c1cnn(Cc2cccc(O/C=C(\OCC)C(F)(F)F)c2)c1 [compound 339] .
Output: 100

====

System: Phakopsora pachyrhizi
assay_name: Test A: test suspension sprayed on soybean seedlings one day before inoculation with Phakopsora pachyrhizi spores (Asian soybean rust), visual disease rating
Assay type: in vivo
conditions: 10 ppm test suspension, 100 = 100% disease control, 0 = no control
So basically: is Test A rating (disease control) under 90%? Then true. Not under? Then false.

Past entries and their recorded results:
[[record]]
compound = "O=C(c1csc(Cc2ccc(OCC(O)(O)C(F)(F)F)cc2)n1)N1CCC(F)(F)C1"
group_label = "true"

[[record]]
compound = "CCOC(=O)NCc1ccc(OCC2(C(F)(F)F)OCCO2)cc1"
group_label = "false"


Input: Please determine if CCCOC(=O)c1ccc(O/C=C(\OCC)C(F)(F)F)cc1 is below 90% in terms of Test A rating (disease control).
Output: true

Input: Please determine if CCOC(=O)c1cnn(Cc2ccc(O/C=C(\OCC)C(F)(F)F)cc2)n1 is below 90% in terms of Test A rating (disease control).
Output: false

Input: Please determine if CCO/C(=C\Oc1ccc(Cn2ccc(C(F)(F)F)n2)cc1)C(F)(F)F is below 90% in terms of Test A rating (disease control).
Output: true

Input: Please determine if O=C(OCc1cccnc1)c1cnn(Cc2ccc(OCC3(C(F)(F)F)OCCO3)cc2)c1 is below 90% in terms of Test A rating (disease control).
Output: false

Input: Please determine if CCO/C(=C\Oc1ccc(C(=O)OC)cc1)C(F)(F)F is below 90% in terms of Test A rating (disease control).
Output: true

Input: Please determine if CC#CCOC(=O)c1cnn(Cc2cccc(O/C=C(\OCC)C(F)(F)F)c2)c1 is below 90% in terms of Test A rating (disease control).
Output: false

====

Listing of entries alongside the reported Test A rating (disease control).
Test system: Phakopsora pachyrhizi
assay_name: Test A: test suspension sprayed on soybean seedlings one day before inoculation with Phakopsora pachyrhizi spores (Asian soybean rust), visual disease rating
Format: in vivo
conditions: 10 ppm test suspension, 100 = 100% disease control, 0 = no control
Response body: numeric value in %, unit text excluded.

[[record]]
smiles_structure = "CCO/C(=C\\Oc1ccc(Cn2cc(C(=O)NCC(F)(F)F)cn2)cc1)C(F)(F)F"
target_entity = "Phakopsora pachyrhizi"
endpoint_unit = "%"
measurement = 0

[[record]]
smiles_structure = "O=C(NCC(F)(F)F)c1cnc(Cc2ccc(OCC3(C(F)(F)F)OCCO3)cc2)o1"
target_entity = "Phakopsora pachyrhizi"
endpoint_unit = "%"
measurement = 54

[[record]]
smiles_structure = "CCCCOC(=O)c1cnn(Cc2ccc(OCC3(C(F)(F)F)OCCO3)cc2)c1"
target_entity = "Phakopsora pachyrhizi"
endpoint_unit = "%"
measurement = 100

[[record]]
smiles_structure = "CCO/C(=C\\Oc1ccc(CN2CCC(C#N)CC2)cc1)C(F)(F)F"
target_entity = "Phakopsora pachyrhizi"
endpoint_unit = "%"
measurement = 0

[[record]]
smiles_structure = "C=C(C)COC(=O)c1cnn(Cc2ccc(O/C=C(\\OCC)C(F)(F)F)cc2)c1"
target_entity = "Phakopsora pachyrhizi"
endpoint_unit = "%"
measurement = 100

[[record]]
smiles_structure = "O=C(OCc1ccncc1)c1cnn(Cc2ccc(OCC3(C(F)(F)F)OCCO3)cc2)c1"
target_entity = "Phakopsora pachyrhizi"
endpoint_unit = "%"
measurement = 100

[[record]]
smiles_structure = "CCO/C(=C\\Oc1ccc(CN2CCC(OC)CC2)cc1)C(F)(F)F"
target_entity = "Phakopsora pachyrhizi"
endpoint_unit = "%"
measurement = 0

[[record]]
smiles_structure = "O=C(NCC1CC1)c1cnc(Cc2ccc(OCC(O)(O)C(F)(F)F)cc2)s1"
target_entity = "Phakopsora pachyrhizi"
endpoint_unit = "%"
measurement = 73

[[record]]
smiles_structure = "CCO/C(=C\\Oc1ccc(Cn2cc(C(=O)OCC(C)C)cn2)cc1)C(F)(F)F"
target_entity = "Phakopsora pachyrhizi"
endpoint_unit = "%"
measurement = 100

[[record]]
smiles_structure = "CCS(=O)(=O)Cc1ccc(OCC(O)(O)C(F)(F)F)cc1"
target_entity = "Phakopsora pachyrhizi"
endpoint_unit = "%"
measurement = 84


Input: I would be grateful if you could share the reported Test A rating (disease control) for CCO/C(=C\Oc1ccc(Cc2ncc(C(=O)NCC(F)F)o2)cc1)C(F)(F)F .
Output: 89

Input: I would be grateful if you could share the reported Test A rating (disease control) for CCCO/C(=C\Oc1cccc(Cn2cc(C(=O)OCC)cn2)c1)C(F)(F)F .
Output: 0

Input: I would be grateful if you could share the reported Test A rating (disease control) for COCCNC(=O)c1csc(Cc2ccc(OCC(O)(O)C(F)(F)F)cc2)n1 .
Output: 75

====

Tested on: Phakopsora pachyrhizi
assay_name: Test A: test suspension sprayed on soybean seedlings one day before inoculation with Phakopsora pachyrhizi spores (Asian soybean rust), visual disease rating
Assay type: in vivo
conditions: 10 ppm test suspension, 100 = 100% disease control, 0 = no control
Listing of entries alongside the reported Test A rating (disease control).
Response body: numeric value in %, unit text excluded.

[[record]]
smiles_structure = "CCO/C(=C\\Oc1ccc(CC#N)cc1)C(F)(F)F"
target_entity = "Phakopsora pachyrhizi"
endpoint_unit = "%"
measurement = 0


Input: I would be grateful if you could share the reported Test A rating (disease control) for C#CCOC(=O)c1cnn(Cc2cccc(O/C=C(\OCC)C(F)(F)F)c2)c1 .
Output: 100

Input: I would be grateful if you could share the reported Test A rating (disease control) for CCO/C(=C\Oc1ccc(Cn2c(=O)oc3ccccc32)cc1)C(F)(F)F .
Output: 0

Input: I would be grateful if you could share the reported Test A rating (disease control) for O=S(=O)(NCc1ccc(OCC2(C(F)(F)F)OCCO2)cc1)C(F)(F)F .
Output: 0

Input: I would be grateful if you could share the reported Test A rating (disease control) for O=C(OCC1CCCC1)c1cnn(Cc2ccc(OCC3(C(F)(F)F)OCCO3)cc2)c1 .
Output: 100
